# Tested on: RXF 631
# Test Description: NCI tumour cell line growth inhibition, 48 h
The source made the active and inactive calls. No stated cut-off is given here; in the data, active = GI50 up to about 1.1 µM and inactive = higher.
Would you kindly list GI50 for each of these molecules?

Return reported GI50 values for all items listed beneath this line.
1. CC1(c2cccc3ccccc23)OC(=O)c2ccccc21 (stereo not drawn)
2. NCCn1cnc2nc(NC(=O)c3ccccc3)[nH]c(=O)c21
3. CCCCNC1=C2C(=O)NN=C2CO1
4. O=C1C(=O)N(C2C3CC4CC(C3)CC2C4)C(=O)C(=O)C1c1nc2ccccc2o1 (stereo not drawn)
5. O=C(O)[C@H](NS(=O)(=O)c1ccc([N+](=O)[O-])cc1)c1ccccc1

Result:
1. 20.2 µM (inactive)
2. > 100 µM (inactive)
3. > 100 µM (inactive)
4. > 100 µM (inactive)
5. > 100 µM (inactive)

Return reported GI50 values for all items listed beneath this line.
1. CCc1nc(N)nc(C(=O)NCCNC(=O)c2nc(N)nc(CC)c2C)c1C
2. C=C1CCC2C(C)(CO)C(O)CCC2(C)C1CC(O)C1=CCOC1=O (stereo not drawn)
3. CC(C)N(C(=O)C12C3C4C5C3C1(C(=O)N(C(C)C)C(C)C)C5(C#N)C42)C(C)C (stereo not drawn)

Result:
1. > 100 µM (inactive)
2. 30.5 µM (inactive)
3. > 100 µM (inactive)

====

# Tested on: UACC-62
# Test Description: NCI tumour cell line growth inhibition, 48 h
Active and inactive are the calls of the source. Cut-off read from the data, not from the text of the source: active = GI50 up to about 1.1 µM and inactive = higher.
Quantity: GI50

Sample records with GI50:
>>> result("CCN1C(=O)c2cc(OC)c(OC)cc2C(=O)C12OC(=O)c1cc3c(cc12)OCO3 (stereo not given)")
"80.5 µM (inactive)"
>>> result("C/N=C(\\N)c1ccc(NC(=N)c2ccc(C(=N)Nc3ccc(/C(N)=N/C)cc3)cc2)cc1")
"> 100 µM (inactive)"
>>> result("COc1cccc2c1c1ccc3c(c1n2C)C(=O)C=CC3=O")
"17.1 µM (inactive)"
>>> result("CC1(C=O)CC(CCc2ccccc2)NC1Cc1ccc(O)cc1 (stereo not given)")
"16.6 µM (inactive)"
>>> result("CCc1c(-c2ccccc2)[nH]c2ccccc2c1=O")
"28.8 µM (inactive)"
>>> result("OC1CC(O)c2c(Cl)sc(Cl)c21 (stereo not given)")
"42.8 µM (inactive)"
>>> result("CCCCCCCCC(=O)NCCN(CCN)C(=O)CCCCCCCC")
"10.7 µM (inactive)"
>>> result("COc1ccc(-n2cnc3c2=NC(C)(C)NC=3C(N)=O)c(OC)c1")
"> 100 µM (inactive)"

Would you mind giving GI50 for every compound in the list below?
1. CCOc1c(/N=N/c2ccccc2Cl)c(-c2ccccc2)nn1C(=S)S
2. CC(CCC(=O)O)c1ccc(Br)cc1 (stereo not given)

Result:
1: 31.2 µM (inactive); 2: > 100 µM (inactive)

====

Kindly supply the reported GI50 values for the records listed here.
# Tested on: NCI-H226
# Test Description: NCI tumour cell line growth inhibition, 48 h
The source made the active and inactive calls. No stated cut-off is given here; in the data, active = GI50 up to about 1.1 µM and inactive = higher.

Would you please look over these solved cases?
>>> result("Brc1ccc2c(c1)-c1nc3nc4c(cc3cc1CC2)CCc1ccc(Br)cc1-4")
"> 100 µM (inactive)"
>>> result("CCCCCCCCCCCC1=NCCN1")
"> 100 µM (inactive)"
>>> result("CC(=O)N(C)c1ccc(/N=C/N(C)C)cc1")
"> 100 µM (inactive)"
>>> result("Cc1ccc2nc(NC(=O)/C(=N\\NC(=S)NN)C3C(=O)NC(=S)NC3=O)sc2c1")
"> 100 µM (inactive)"
>>> result("NNC(=O)c1nn[nH]c1SSc1[nH]nnc1C(=O)NN")
"> 100 µM (inactive)"

State the recorded GI50 for every item in the following list.
1. Nc1nnc(CCC(=O)Nc2cc(Cl)ccc2Cl)n1N
2. NC1CCCCC1.O=P(O)(O)C(O)/C=C/c1ccccc1 (stereo unspecified)

Result:
1: > 100 µM (inactive); 2: > 100 µM (inactive)

Below are 6 compounds. Give each one its GI50.
1. CC(=O)CC1=C(OC(C)C)C2(OCCO2)C1O (stereo unspecified)
2. O=C1NC(N2CCCC(CO)C2)=N/C1=C\c1ccc(Cl)cc1 (stereo unspecified)
3. COc1cc(OC)c(/C=C2\N=C(C)N(Nc3nnc(NN4C(=O)/C(=C/c5c(OC)cc(OC)cc5OC)N=C4C)c4ccccc34)C2=O)c(OC)c1
4. Cc1cc2oc3c(ccc(=O)n3C)c(=O)c2c(C)c1Cl
5. Cn1ccc(C(=O)NCCCCCNC(=O)c2ccn(C)c(=O)c2O)c(O)c1=O
6. C[C@]12Cc3conc3C(O)=C1CC[C@@H]1C2CC[C@@]2(C)C1CC[C@@H]2O (stereo partly specified)

Result:
1: > 100 µM (inactive); 2: > 100 µM (inactive); 3: > 100 µM (inactive); 4: 35.6 µM (inactive); 5: > 100 µM (inactive); 6: 18 µM (inactive)

====

# Test system: SK-OV-3
# Test Description: NCI tumour cell line growth inhibition, 48 h
Activity calls are given as the source filed them. Rule as the data show it: active = GI50 up to about 1.1 µM and inactive = higher.
Pick one: TRUE for active, FALSE for inactive

>>> class_name("CC/C=C/c1cc2c(cc1O)CCC1C2CC[C@@]2(C)C1CC[C@@H]2O (some centres undefined)")
"FALSE"
>>> class_name("C/C(CC(=O)Nc1ccc(Cl)cc1)=N\\NC(N)=S")
"FALSE"
>>> class_name("COc1cc(CCC(=O)O)c2cc3ccccc3cc2c1O")
"FALSE"
>>> class_name("CCOC(=O)NC(OC)(C(F)(F)F)C(F)(F)F")
"FALSE"
>>> class_name("COc1ccc2nc(NC(=O)C(=O)C(C#N)c3ccc([N+](=O)[O-])cc3)sc2c1 (centres undefined)")
"FALSE"
>>> class_name("c1ccc(B2OCC(C3OB(c4ccccc4)OC4COB(c5ccccc5)OC43)O2)cc1 (centres undefined)")
"FALSE"

Q: Could you check what this test reported for O=C(CCC(=O)Nc1ccc(Cl)c(Cl)c1)Cc1nc2ccccc2o1 ?
Result: FALSE

====

# Tested on: PC-3
# Test Description: NCI tumour cell line growth inhibition, 48 h
Calls of active or inactive are those of the source. Cut-off read from the data, not from the text of the source: active = GI50 up to about 1.1 µM and inactive = higher.
Hi there, use one of these labels in your reply, thanks! active, inactive

// below: answered molecules
>>> class_name("CCCOC(=O)c1cc(C(=CCC[C@H]2CC[C@@]3(C)[C@@H](CC[C@@H]4[C@@H]3CC[C@]3(C)[C@@H](C(C)CCCC(C)C)CC[C@@H]43)C2)c2cc(Cl)c(O)c(C(=O)OCCC)c2)cc(Cl)c1O (some centres undefined)")
"inactive"
>>> class_name("Cc1cc(O)c(C(C)C)cc1C1(c2cc(C(C)C)c(O)cc2C)OC(=O)c2ccccc21")
"inactive"
>>> class_name("Cc1cc2nc3c(C#N)c4c(c(Nc5ccc(F)cc5)n3c2cc1C)CCC4")
"inactive"
>>> class_name("O=C(CCc1cc(O)cc(O)c1)NCCc1ccc(O)c(O)c1")
"inactive"
>>> class_name("CCc1n[nH]c(=O)n1-n1c(C)ccc1C")
"inactive"

Q: What classification did CN(C)c1ccc(-c2c(C#N)c(S)n(NS(=O)(=O)c3ccccc3)c(=O)c2C#N)cc1 end up with in this test?
Result: inactive

Q: What is the recorded call for this molecule in the test? COc1cc2nc(-c3cccs3)nc(N3C(c4ccc(O)cc4)=NNC(=O)c4ccccc43)c2cc1OC
Result: inactive

Q: Please share the test call associated with C=CS(=O)(=O)CCN1CC1 .
Result: inactive

Q: Fill in: this test's call for CCC1(O)C(=O)OCc2c1cc1n(c2=O)Cc2cc3cc4c(cc3nc2-1)OCO4 (centres undefined) is ___
Result: active

====

# Tested on: LOX IMVI
# Test Description: NCI tumour cell line growth inhibition, 48 h
Activity calls are given as the source filed them. Cut-off read from the data, not from the text of the source: active = GI50 up to about 1.1 µM and inactive = higher.
// allowed return values: active, inactive

>>> class_name("Cc1c2ccnc(C(=O)NCCN(C)C)c2cc2c3cc(O)ccc3n(C)c12")
"active"
>>> class_name("COC1CC(OC2CCC3(C)C(=CCC4C3C(OC(C)=O)C(OC(=O)CC(C)C)C3(C)C(C(C)=O)CCC43O)C2)OC(C)C1OC1CC(OC)C(OC2CC(OC)C(OC3OC(C)C(O)C(OC)C3O)C(C)O2)C(C)O1 (centres undefined)")
"inactive"
>>> class_name("CCCCCCCCC(=O)NCCN(CCN)C(=O)CCCCCCCC")
"inactive"
>>> class_name("O=C(CCCn1ccnc1[N+](=O)[O-])NCCn1cnc([N+](=O)[O-])c1")
"inactive"
>>> class_name("N=C(N)N/N=C/c1c(-c2ccc(Cl)cc2)nc2sc(Cl)cn12")
"active"

Here's the next entry for you.
Q: Dear colleague, could you share the recorded outcome for O=C(OCCOCBr)c1ccccc1 when you have a moment?
Result: inactive

====

# Tested on: M14
# Test Description: NCI tumour cell line growth inhibition, 48 h
The source made the active and inactive calls. Cut-off read from the data, not from the text of the source: active = GI50 up to about 1.1 µM and inactive = higher.
Your response should consist of one outcome taken from active, inactive

>>> class_name("O=C(O)c1ccc(NNc2cc(=O)[nH]c(=O)[nH]2)cc1")
"inactive"

Q: // return assay outcome for O=C(CSc1nccc(=O)[nH]1)c1ccccc1
Result: inactive

Q: GET /call?item= Cc1c2ccnc(C(=O)NCCN(C)C)c2cc2c3cc(O)ccc3n(C)c12 returns the recorded outcome of this test.
Result: active

Q: Which result was noted for this molecule in the test: C=CC[C@@]1(C#N)C[C@H](C[C@]2(C#N)C[C@H](CCl)OC(C)(C)O2)OC(C)(C)O1
Result: inactive

Q: // param item: O=c1[nH]c(=O)n(C/C=C/CBr)nc1Br ; yields the recorded call
Result: inactive

Q: Each molecule tested received a call. Report the one for CCCCCCCCCCCCCCCCCCNc1ccn(C2OC(COP(=O)(O)OCC3OC(n4cc(C)c(=O)[nH]c4=O)CC3N=[N+]=[N-])C(O)C2O)c(=O)n1 (stereo not given) .
Result: inactive

Q: // param item: O=C(NCCN1CCCCC1)c1ccc(Br)cc1 ; yields the recorded call
Result: inactive

Q: How was N=C(NNS(=O)(=O)c1ccccc1)Oc1ccc(Cl)cc1 classified in this test?
Result: inactive

Q: Look up the recorded call for COc1cc(OC)c(/C=C2\N=C(C)N(Nc3nnc(NN4C(=O)/C(=C/c5c(OC)cc(OC)cc5OC)N=C4C)c4ccccc34)C2=O)c(OC)c1 in this test.
Result: inactive

Q: For Cc1ccc(/C=N/C23CC4CC(CC(C4)C2)C3)cc1 , which call appears in the assay record?
Result: inactive
